System: A549 cells
assay_name: MTT assay (mitochondrial metabolism)
Format: cell-based
applied_conditions: Homo sapiens; A549, 72 h exposure; 95% confidence interval in brackets; read-out: IC50 MTT assay
observed_property: IC50 (µM)
Reply numerically in µM, unit not repeated.

Prompt line: Can you look up IC50 on A549 cells for C=C(C)[C@@H]1CCC(C)=C[C@H]1c1c(O)cc(CCCCC)cc1O ?
Response line: 27.7

----------
System: MDA-MB-231 cells
assay_name: MTT assay (mitochondrial metabolism)
Assay type: cell-based, human
applied_conditions: Homo sapiens, MDA-MB-231, 72 h, read-out: IC50 MTT assay
Excerpt: MTT assay is the most commonly used method for high-throughput identification of the antiproliferative effects of compounds on cultured cells and is indirectly correlated with mitochondria-dependent apoptosis progression[59]–[61]. The production of reducing equivalents such as NADH in metabolically active cells is an indicator of “cell redox activity”, indirectly reflecting the number of viable cells[60],[61] and the mitochondrial metabolic rate in cells[62],[63]. […]
observed_property: pIC50
Lab note: report pIC50 as minus log10 of the concentration in molar units, number only.

Prompt line: Any idea what pIC50 was measured for C=C(C)[C@@H]1CCC(C)=C[C@H]1c1c(O)cc(CCC)cc1O ?
Response line: 4.42

----------
System: A549 cells
assay_name: BrdU-ELISA (DNA synthesis inhibition)
Assay type: cell-based
applied_conditions: Homo sapiens; A549, 72 h exposure; 95% confidence interval in brackets; read-out: IC50 BrdU-ELISA
observed_property: pIC50
Lab note: report pIC50 as minus log10 of the concentration in molar units, number only.

Prompt line: Any idea what pIC50 was measured for C=C(C)[C@@H]1CCC(C)=C[C@H]1c1c(O)cc(CCCCC)cc1O ?
Response line: 4.39

----------
System: MDA-MB-231 cells
assay_name: LDH assay (plasma membrane damage)
Format: cell-based
applied_conditions: Homo sapiens; MDA-MB-231, 72 h exposure; 95% confidence interval in brackets; read-out: IC50 LDH assay
observed_property: IC50 (µM)
Reply numerically in µM, unit not repeated.

Prompt line: Any idea what IC50 was measured for C=C(C)[C@@H]1CCC(C)=C[C@H]1c1c(O)cc(CCCCC)cc1O [CBD, Cannabidiol] ?
Response line: 22.1

----------
System: TelCOFS02MA cells
assay_name: BrdU-ELISA (DNA synthesis inhibition)
Format: cell-based, human
applied_conditions: Homo sapiens; TelCOFS02MA, 72 h exposure; 95% confidence interval in brackets; read-out: IC50 BrdU-ELISA
Procedure: BrdU-ELISA was performed according to the protocol described by Lehmann and collaborators, and the results were used to evaluate the inhibition of DNA synthesis. […] The incorporation of BrdU into DNA was quantified spectrophotometrically at 370 nm. […] The mean absorbance of the control cells represented 100% cell proliferation, and the mean absorbance of the treated cells was related to the control values to determine cell sensitivity. […]
observed_property: pIC50
Lab note: report pIC50 as minus log10 of the concentration in molar units, number only.

Prompt line: Can you look up pIC50 on TelCOFS02MA cells for C=C(C)[C@@H]1CCC(C)=C[C@H]1c1c(O)cc(CCCCC)cc1O [CBD, Cannabidiol] ?
Response line: 4.31

----------
Tested on: A549 cells
assay_name: LDH assay (plasma membrane damage)
Format: cell-based
applied_conditions: Homo sapiens, A549, 72 h, read-out: IC50 LDH assay
observed_property: IC50 (µM)
Reply numerically in µM, unit not repeated.

Prompt line: Can you look up IC50 on A549 cells for C=C(C)[C@@H]1CCC(C)=C[C@H]1c1c(O)cc(CCC)cc1O [CBDV, cannabidivarin] ?
Response line: 26.3
